Data origin: patent US20250345392A1

Test: Clinical test in humans, three 30-min i.v. infusions 8 hours apart, plasma PK
Type: in vivo
Details: human, in vivo, iv, 200 ug/kg, three 30-min i.v. infusions 8 h apart, 200 μg/kg each, GM, read-out: Global Cmax
Ends that are not written are not given here.
observed-property: Cmax (ng/mL)
Numeric only. Scale: ng/mL

Name the recorded Cmax for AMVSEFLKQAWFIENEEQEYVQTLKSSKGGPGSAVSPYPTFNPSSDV-NH2 [Peptide 1] . 2350

* * *

Test: Clinical test in humans, single 30-min i.v. infusion, plasma PK
Type: in vivo
Settings: human, in vivo, iv, 50 ug/kg, single 30-min i.v. infusion 50 μg/kg, mean, read-out: AUC0-24
Ends that are not written are not given here.
observed-property: AUC(0-t) (ng·h/mL)
Numeric only. Scale: ng·h/mL

Name the recorded AUC(0-t) for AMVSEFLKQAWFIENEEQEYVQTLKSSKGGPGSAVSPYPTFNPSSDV-NH2 [Peptide 1] . 464

* * *

Assay: Clinical test in humans, three 30-min i.v. infusions 8 hours apart, plasma PK
Type: in vivo
Conditions: human, plasma, iv, 140 μg/kg, three 30-min i.v. infusions 8 h apart, 140 μg/kg each, mean, read-out: Cmax1
Ends that are not written are not given here.
observed-property: Cmax
Answer format: number, then unit.

Name the recorded Cmax for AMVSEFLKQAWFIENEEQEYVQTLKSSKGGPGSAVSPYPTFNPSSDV-NH2 [Peptide 1] . 1340 ng/mL

* * *

Experiment: 14-day repeat dose IV toxicity study with toxicokinetic evaluation on Day 1 and Day 14 in rats
Assay type: in vivo, Wistar rats
Details: rat, in vivo, iv, 1 mg/kg/day, IV 1.0 mg/kg/day, female, Day 14, read-out: Vz
Ends that are not written are not given here.
observed-property: Vd (L/kg)
Numeric only. Scale: L/kg

Name the recorded Vd for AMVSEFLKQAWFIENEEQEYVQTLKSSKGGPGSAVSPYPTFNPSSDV-NH2 [Peptide 1] . 0.167

* * *

Assay: Clinical test in humans, single 30-min i.v. infusion, plasma PK
Format: in vivo
Details: human, in vivo, iv, single 30-min i.v. infusion 100 μg/kg, GM
Ends that are not written are not given here.
observed-property: clearance (L/h/kg)
Numeric only. Scale: L/h/kg

Name the recorded clearance for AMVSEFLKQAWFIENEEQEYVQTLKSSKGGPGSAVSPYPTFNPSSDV-NH2 [Peptide 1] . 0.09

* * *

Experiment: Clinical test in humans, three 30-min i.v. infusions 8 hours apart, plasma PK
Assay type: in vivo
Conditions: human, in vivo, iv, 50 ug/kg, three 30-min i.v. infusions 8 h apart, 50 μg/kg each, GM, read-out: AUC0-tau2
Ends that are not written are not given here.
observed-property: AUC (ng·h/mL)
Numeric only. Scale: ng·h/mL

Name the recorded AUC for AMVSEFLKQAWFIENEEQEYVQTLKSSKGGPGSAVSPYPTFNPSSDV-NH2 [Peptide 1] . 511

* * *

Assay: Clinical test in humans, three 30-min i.v. infusions 8 hours apart, plasma PK
Assay type: in vivo
Details: human, in vivo, iv, 200 ug/kg, three 30-min i.v. infusions 8 h apart, 200 μg/kg each, mean, read-out: AUC0-t2
Ends that are not written are not given here.
observed-property: AUC (ng·h/mL)
Numeric only. Scale: ng·h/mL

Name the recorded AUC for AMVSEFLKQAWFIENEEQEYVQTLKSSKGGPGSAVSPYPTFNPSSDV-NH2 [Peptide 1] . 2610

* * *

Test: Clinical test in humans, three 30-min i.v. infusions 8 hours apart, plasma PK
Type: in vivo
Settings: human, in vivo, iv, 140 ug/kg, three 30-min i.v. infusions 8 h apart, 140 μg/kg each, median, read-out: Global tmax
Ends that are not written are not given here.
observed-property: Tmax

Name the recorded Tmax for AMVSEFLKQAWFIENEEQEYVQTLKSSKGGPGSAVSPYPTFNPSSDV-NH2 [Peptide 1] . 8.41 h

* * *

Assay: Clinical test in humans, three 30-min i.v. infusions 8 hours apart, plasma PK
Format: in vivo
Settings: human, plasma, iv, 100 μg/kg, three 30-min i.v. infusions 8 h apart, 100 μg/kg each, GM, read-out: Cmax1
Ends that are not written are not given here.
observed-property: Cmax (µg/mL)
Numeric only. Scale: µg/mL

Name the recorded Cmax for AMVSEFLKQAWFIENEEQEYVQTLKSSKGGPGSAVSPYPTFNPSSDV-NH2 [Peptide 1] . 0.877

* * *

Test: 14-day repeat dose IV toxicity study with toxicokinetic evaluation on Day 1 and Day 14 in rats
Assay type: in vivo, Wistar rats
Conditions: rat, in vivo, iv, 3 mg/kg/day, IV 3.0 mg/kg/day, female, Day 14, read-out: AUC0-∞ (converted)
Ends that are not written are not given here.
observed-property: AUC(0-inf) (ng·h/mL)
Numeric only. Scale: ng·h/mL

Name the recorded AUC(0-inf) for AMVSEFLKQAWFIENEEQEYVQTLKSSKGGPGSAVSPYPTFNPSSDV-NH2 [Peptide 1] . 3380

* * *

Assay: 14-day repeat dose IV toxicity study with toxicokinetic evaluation on Day 1 and Day 14 in rats
Format: in vivo, Wistar rats
Conditions: rat, in vivo, iv, 10 mg/kg/day, IV 10 mg/kg/day, male, Day 14, read-out: Vz
Ends that are not written are not given here.
observed-property: Vd
Answer format: number, then unit.

Name the recorded Vd for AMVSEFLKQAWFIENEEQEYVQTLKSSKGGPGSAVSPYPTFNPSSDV-NH2 [Peptide 1] . 0.192 L/kg

* * *

Experiment: 14-day repeat IV dose toxicity study with toxicokinetic evaluation on Day 1 and 14 in dogs
Assay type: in vivo, beagle dogs
Details: dog, in vivo, 10 mg/kg, Group 4 (10 mg/kg), range over sexes and Days 1 and 14
Ends that are not written are not given here.
observed-property: C0

Name the recorded C0 for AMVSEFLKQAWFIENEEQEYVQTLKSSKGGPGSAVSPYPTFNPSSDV-NH2 [Peptide 1] . 26.4 to 58.3 µg/mL

* * *

Test: 14-day repeat IV dose toxicity study with toxicokinetic evaluation on Day 1 and 14 in dogs
Type: in vivo, beagle dogs
Details: dog, in vivo, 1 mg/kg, Group 2 (1 mg/kg), range over sexes and Days 1 and 14
Ends that are not written are not given here.
observed-property: C0

Name the recorded C0 for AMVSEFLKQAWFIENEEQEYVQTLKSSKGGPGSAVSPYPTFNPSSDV-NH2 [Peptide 1] . 4580 to 8580 ng/mL

* * *

Assay: Clinical test in humans, three 30-min i.v. infusions 8 hours apart, plasma PK
Assay type: in vivo
Settings: human, in vivo, iv, three 30-min i.v. infusions 8 h apart, 140 μg/kg each, GM, after the last infusion
Ends that are not written are not given here.
observed-property: half-life (h)
Numeric only. Scale: h

Name the recorded half-life for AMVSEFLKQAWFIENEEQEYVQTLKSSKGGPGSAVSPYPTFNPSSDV-NH2 [Peptide 1] . 1.93

* * *

Experiment: 14-day repeat dose IV toxicity study with toxicokinetic evaluation on Day 1 and Day 14 in rats
Format: in vivo, Wistar rats
Conditions: rat, in vivo, iv, 1 mg/kg/day, IV 1.0 mg/kg/day, female, Day 14
Protocol: Peptide 1 in blood samples collected from animals used in the studies (rat and dog) has been measured by an LC-MS/MS method. Analysis of samples collected in the pharmacokinetic study in rats was performed prior to validation of the method. Prior to analysis of samples from the GLP toxicology studies, the method was validated according to GLP to ensure that it is selective, accurate, reproducible, and able to produce reliable results. […]
Ends that are not written are not given here.
observed-property: clearance
Answer format: number, then unit.

Name the recorded clearance for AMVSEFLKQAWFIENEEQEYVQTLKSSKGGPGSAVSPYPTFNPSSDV-NH2 [Peptide 1] . 16.2 mL/min/kg

* * *

Assay: Clinical test in humans, single 30-min i.v. infusion, plasma PK
Assay type: in vivo
Settings: human, in vivo, iv, 50 ug/kg, single 30-min i.v. infusion 50 μg/kg, mean
Ends that are not written are not given here.
observed-property: Cmax (ng/mL)
Numeric only. Scale: ng/mL

Name the recorded Cmax for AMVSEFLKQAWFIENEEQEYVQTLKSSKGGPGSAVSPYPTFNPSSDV-NH2 [Peptide 1] . 375

* * *

Test: Clinical test in humans, single 30-min i.v. infusion, plasma PK
Type: in vivo
Settings: in vivo, iv, 100 ug/kg; human, single 30-min i.v. infusion 100 μg/kg, median
Ends that are not written are not given here.
observed-property: Tmax (min)
Numeric only. Scale: min

Name the recorded Tmax for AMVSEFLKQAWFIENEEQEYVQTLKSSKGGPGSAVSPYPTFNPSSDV-NH2 [Peptide 1] . 30

* * *

Test: Clinical test in humans, three 30-min i.v. infusions 8 hours apart, plasma PK
Format: in vivo
Conditions: human, in vivo, iv, three 30-min i.v. infusions 8 h apart, 200 μg/kg each, GM, after the last infusion
Ends that are not written are not given here.
observed-property: half-life

Name the recorded half-life for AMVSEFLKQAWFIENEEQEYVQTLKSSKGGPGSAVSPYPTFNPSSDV-NH2 [Peptide 1] . ~2 h
